Attribute: melting point

Known melting point results, listed for orientation:
MOLECULE: COc1ccc2c(=O)ccn(CCN3CCC(NC(=O)OC(C)(C)C)CC3)c2c1
PARAMETER_MEASURED: melting point
REPORTED_VALUE: 207 °C

MOLECULE: CC(C)(C(=O)NCCn1ccc2ncnc(Nc3ccc(Oc4cccc(C(F)(F)F)c4)c(Cl)c3)c21)S(C)(=O)=O
PARAMETER_MEASURED: melting point
REPORTED_VALUE: 167 to 168 °C

MOLECULE: O=C(Nc1nc2ccc(Sc3cnc4ccc(-c5cccc(F)c5)cn34)cc2s1)C1CC1
PARAMETER_MEASURED: melting point
REPORTED_VALUE: > 260 °C

MOLECULE: COc1nc(C(F)F)cnc1NS(=O)(=O)c1cccc(Cl)c1Cl
PARAMETER_MEASURED: melting point
REPORTED_VALUE: 117 to 118 °C

MOLECULE: O=c1c2c(Cc3ccccc3C(F)(F)F)n[nH]c2c2cccnc2n1-c1cccc(C(F)(F)F)c1
PARAMETER_MEASURED: melting point
REPORTED_VALUE: 260 to 264 °C

MOLECULE: COC(=O)c1cc2cc(OC)c(OC)cc2nc1N
PARAMETER_MEASURED: melting point
REPORTED_VALUE: 227 to 229 °C

MOLECULE: Cc1cccc2ncc(C(=O)Nc3ccc(Cl)cc3)c(=O)n12
PARAMETER_MEASURED: melting point
REPORTED_VALUE: 202 to 204 °C

MOLECULE: C#CCC(C(=CCl)c1cccnc1)c1ccc(Cl)cc1Cl (centres undefined)
PARAMETER_MEASURED: melting point
REPORTED_VALUE: 87 to 88 °C

Name the recorded melting point for Cc1c(N2CCOCC2)c(F)cc2c(=O)c(C(=O)O)cn(C3CC3)c12 .
228 °C

Provenance of the data: a melting point compilation (Tetko et al.; mined from patent text by program, amines drawn as free bases though some values may be those of a salt)
